- experiment: Human pregnane X receptor (PXR) small molecule agonists, qHTS cell viability counter screen (AID 1346977); further: on the % scale 0 is the no-effect control and ±100 the full control effect; nearly all actives have a fitted effect of over 50% in size
- assay_setup: PXR-Luc HepG2 viability, CellTiter-Fluor, 24 h; series mostly up to 92.4 µM
- From the text: U.S. Tox21 Program National Center for Advancing Translational Sciences [NCATS] NIH Chemical Genomics Center [NCGC] U.S. Environmental Protection Agency [EPA] National Institutes of Environmental Health Sciences [NIEHS] National Toxicology Program [NTP] U.S. Food and Drug Administration [FDA] […]
Results filed as inconclusive are left out. Active and inactive are the calls of the source. The call rests on the fitted dose curve; in most records, active means well fitted cell-killing curve with a large enough effect in the repeat runs; inconclusive means weak or mixed curves, or effect the other way; inactive means flat fitted curve, though single readings scatter.
measured_metric: activity change, negative = cytotoxicity

[[record]]
molecule = "NC[C@H]1O[C@H](O[C@H]2[C@H](O)[C@@H](O[C@H]3O[C@H](CO)[C@@H](O)[C@H](N)[C@H]3O)[C@H](N)C[C@@H]2N)[C@H](O)[C@@H](O)[C@@H]1O"
measured_metric = "activity change, negative = cytotoxicity"
observed_value = "-6.07% [at 8.39 µM] (inactive)"

[[record]]
molecule = "CCCCCCCCCCCCCCCCCBr"
measured_metric = "activity change, negative = cytotoxicity"
observed_value = "1.63% [at 19 µM] (inactive)"

[[record]]
molecule = "CCN(CCO)CCCC(C)Nc1ccnc2cc(Cl)ccc12 (centres undefined)"
measured_metric = "activity change, negative = cytotoxicity"
observed_value = "4.23% [at 8.39 µM] (inactive)"

[[record]]
molecule = "O=C(C(=O)c1ccc(Br)cc1)c1ccc(Br)cc1"
measured_metric = "activity change, negative = cytotoxicity"
observed_value = "-1.5% [at 19 µM] (inactive)"


----------
- test_system: Cytochrome P450 3A4 (Homo sapiens)
- experiment: Cytochrome P450 Family 3 Subfamily A Member 4 (CYP3A4) small molecule antagonists: luciferase reporter qHTS assay (AID 1671201); further: nearly all actives have a fitted effect of over 50% in size
- assay_setup: P450-Glo CYP3A4 enzyme, luciferin luminescence, 1 h; series mostly up to 115 µM
Records with an inconclusive call do not appear. Activity calls are given as the source filed them. Calls follow the shape of the dose curve; as a rule, active = well fitted inhibition curve with a large enough effect in the repeat runs; inconclusive = weak or mixed curves; inactive = no such curve, though single readings can be large or run the other way.
Classes used: 1 for active, 0 for inactive

[[record]]
molecule = "C=CC(=O)OCC(C)OCC(C)OCC(C)OC(=O)C=C (configuration not stated)"
classification = 1

[[record]]
molecule = "O=C1CCCCCO1"
classification = 0

[[record]]
molecule = "CC(C)(C)c1cc(CO)cc(C(C)(C)C)c1O"
classification = 1

[[record]]
molecule = "O=C(CC(=O)c1ccccc1)c1ccccc1"
classification = 0

[[record]]
molecule = "CCCCCOC(=O)COc1cc(N2C(=O)C3=C(CCCC3)C2=O)c(F)cc1Cl"
classification = 1

[[record]]
molecule = "CC(C(=O)O)c1ccc(C(=O)c2ccccc2)s1 (configuration not stated)"
classification = 0

[[record]]
molecule = "CC(CN)CCCN (configuration not stated)"
classification = 1


----------
- test_system: Cytochrome P450 3A4 (Homo sapiens) (UniProt P08684)
- Sequence (P08684 whole entry, looked up): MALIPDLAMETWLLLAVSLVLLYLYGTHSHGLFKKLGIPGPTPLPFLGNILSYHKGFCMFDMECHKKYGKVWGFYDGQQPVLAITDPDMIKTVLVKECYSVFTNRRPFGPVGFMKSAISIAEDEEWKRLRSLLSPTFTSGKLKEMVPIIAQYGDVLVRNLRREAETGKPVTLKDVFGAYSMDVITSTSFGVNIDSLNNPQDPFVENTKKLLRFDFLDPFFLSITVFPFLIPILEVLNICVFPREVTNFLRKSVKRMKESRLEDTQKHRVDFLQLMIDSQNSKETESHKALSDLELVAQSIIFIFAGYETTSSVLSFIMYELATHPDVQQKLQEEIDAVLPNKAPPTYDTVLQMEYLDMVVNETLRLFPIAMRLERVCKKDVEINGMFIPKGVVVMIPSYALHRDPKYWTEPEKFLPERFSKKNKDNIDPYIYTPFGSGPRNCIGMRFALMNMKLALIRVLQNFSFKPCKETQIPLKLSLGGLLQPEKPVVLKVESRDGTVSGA
- experiment: Cytochrome P450 Family 3 Subfamily A Member 4 (CYP3A4) small molecule antagonists: luciferase reporter qHTS assay (AID 1671201); further: nearly all actives have a fitted effect of over 50% in size
- assay_setup: P450-Glo CYP3A4 enzyme, luciferin luminescence, 1 h; series mostly up to 115 µM
Results filed as inconclusive are left out. Calls of active or inactive are those of the source. Calls come from the whole dose curve; as a rule, active = well fitted inhibition curve with a large enough effect in the repeat runs; inconclusive = weak or mixed curves; inactive = no such curve, though single readings can be large or run the other way.
Classes used: active, inactive

[[record]]
compound = "CCOC(=S)SSC(=S)OCC"
classification = "inactive"

[[record]]
compound = "Cc1occc1S"
classification = "active"

[[record]]
compound = "CN1CCC(=C2c3ccccc3CCc3sccc32)CC1"
classification = "inactive"

[[record]]
compound = "N#CCc1cccc(C(F)(F)F)c1"
classification = "inactive"

[[record]]
compound = "NC(=S)N/N=C/c1cccnc1"
classification = "inactive"

[[record]]
compound = "CCCCCCCCCC(=O)OCC"
classification = "inactive"

[[record]]
compound = "NC(N)=N/N=C/c1c(Cl)cccc1Cl"
classification = "inactive"

[[record]]
compound = "CC(=O)c1ccc2c(c1)[C@H](NC(=O)c1ccc(F)cc1)[C@@H](O)C(C)(C)O2"
classification = "active"

[[record]]
compound = "CC(=O)N(O)CCCCCNC(=O)CCC(=O)N(O)CCCCCNC(=O)CCC(=O)N(O)CCCCCN"
classification = "inactive"

[[record]]
compound = "COCCCCCCCCOCCC[Si](C)(O[Si](C)(C)C)O[Si](C)(C)C"
classification = "active"

[[record]]
compound = "Cn1c(NCCN(CCO)CCCc2ccc([N+](=O)[O-])cc2)cc(=O)n(C)c1=O"
classification = "inactive"

[[record]]
compound = "N[C@H]1C(O)O[C@H](CO)[C@H](O)[C@@H]1O (stereo not given in full)"
classification = "inactive"

[[record]]
compound = "CCCCCC(CO)CCC (stereo not given)"
classification = "inactive"

[[record]]
compound = "ClC(Cl)(Cl)c1ccc(C(Cl)(Cl)Cl)cc1"
classification = "inactive"

[[record]]
compound = "COC(Cc1ccccc1)OC"
classification = "inactive"

[[record]]
compound = "CC(=O)/C=C/C1C(C)=CCCC1(C)C (stereo not given)"
classification = "inactive"

[[record]]
compound = "Cc1cccc(Oc2ccccc2)c1"
classification = "active"

[[record]]
compound = "Nc1nc(N)c2nc(CNc3ccc(C(=O)N[C@@H](CCC(=O)O)C(=O)O)cc3)cnc2n1"
classification = "inactive"

[[record]]
compound = "CCCCCC/C=C/C=O"
classification = "inactive"

[[record]]
compound = "Cc1ccc(C(N)=O)cc1N"
classification = "inactive"

[[record]]
compound = "CN(C)CC[C@@H](c1ccc(Br)cc1)c1ccccn1"
classification = "inactive"

[[record]]
compound = "CCCCCc1ccc(N)cc1"
classification = "active"

[[record]]
compound = "O=C(O)[C@@H]1[C@H]2C[C@H]3c4[nH]c5ccccc5c4CCN3C[C@@H]2CC[C@@H]1O"
classification = "inactive"

[[record]]
compound = "CC(=O)[C@@]1(O)CC[C@H]2[C@@H]3C[C@H](C)C4=CC(=O)CC[C@]4(C)[C@H]3CC[C@@]21C"
classification = "inactive"

[[record]]
compound = "CC[C@@H]1C[C@H](N(Cc2cc(C(F)(F)F)cc(C(F)(F)F)c2)C(C)=O)c2cc(C(F)(F)F)ccc2N1C(=O)OC(C)C"
classification = "active"

